Molecular target: FMNL2
Assay: pooled miR-30 sensor sort-seq; sequence = guide strand; further: reference of the scale not given here
Conditions: shRNA
test_readout: sensor-assay potency score (higher = more potent)
Give the value as a plain number.

The cases that follow already have their sensor-assay potency score (higher = more potent) on record.
>>> print(df.to_string())
       construct_sequence  reported_result
0  TTCTTCTTTTTCTTTGACCATT            -1.21
1  TACAATATTAATAAACTGCATA           -0.855
2  TAATTCTGCAATTAACTCTTGC           -0.103
3  TAGACTGTCTTTGAATTGCTTC            0.088

// switching to the query sequence
Challenge: So what does the record say about sensor-assay potency score (higher = more potent) for `TTATCTTTAACTTGTCGTCTTC` ?
Response given: 0.239

###

Biological target: INO80C
Assay: pooled miR-30 sensor sort-seq; sequence = guide strand
Conditions: shRNA
test_readout: sensor-assay potency score (higher = more potent)

The cases that follow already have their sensor-assay potency score (higher = more potent) on record.
       construct_sequence  reported_result
0  TTGGAGGGAAAACACACACTAA            -1.27
1  TTGCTGTTCCGGACTATTCCGG           -0.701
2  TGTAGTTGGCAAGCAGACCTGA          -0.0597

// switching to the query sequence
Challenge: So what does the record say about sensor-assay potency score (higher = more potent) for `TTTTGAAACAGCTTTCCACTTC` ?
Response given: 0.164

###

Molecular target: SSX3
Assay: pooled miR-30 sensor sort-seq; sequence = guide strand
Details: shRNA
test_readout: sensor-assay potency score (higher = more potent)
Give the value as a plain number.

The cases that follow already have their sensor-assay potency score (higher = more potent) on record.
>>> df
       construct_sequence  measured_target  reported_result
0  TTGAACCTGATTCCCACGGTTA             SSX3           -0.528
1  TATTACGCATGAAAGATGGGAG             SSX3             0.05

Challenge: So what does the record say about sensor-assay potency score (higher = more potent) for `TAACAGAATGACACACTTCAAG` ?
Response given: -1.11

Challenge: What do you have for `TTTGGGTCCAGATATCATGTTA` ?
Response given: -0.75

Challenge: What do you have for `TTTCTCCGAGACTTTCATCTTT` ?
Response given: -0.136

Challenge: What do you have for `TTTGTATCTTCTCTGGTATTTG` ?
Response given: -1.22

Challenge: What do you have for `ATATCATGTTAATCTTCTCAGA` ?
Response given: -1.24

###

Molecular target: APOA4
Assay: pooled miR-30 sensor sort-seq; sequence = guide strand
Conditions: shRNA
test_readout: sensor-assay potency score (higher = more potent)
Give the value as a plain number.

The cases that follow already have their sensor-assay potency score (higher = more potent) on record.
>>> df
       construct_sequence  reported_result
0  AAGTAGTCCCACATCACCGTGG           -0.243
1  TTCTGGTCGATCTTGGCCTTGA           -0.621

Challenge: // map `TTCTTCTGCAGGTCACCTGCGT` to recorded sensor-assay potency score (higher = more potent) (system: APOA4)
Response given: -0.176

Challenge: What do you have for `TTCTCCTTGAAGGTGCTGAAGA` ?
Response given: -1.33

Challenge: What do you have for `TCCACGTTCTGGTCGATCTTGG` ?
Response given: -1.41

Challenge: What do you have for `TTCTTCATCTGGAAGGTCAGGC` ?
Response given: 0.31

Challenge: What do you have for `TCGATCTTGGCCTTGAGCTCGT` ?
Response given: -0.264
